Origin of the recorded values: ChEMBL document CHEMBL1127956

- targetOrTestSystem: Renin (Homo sapiens)
- protocolDescription: In vitro inhibitory activity against monkey plasma renin
- Assay type: cell-free, Cercopithecidae
- conditionLabel: target entry is the homologue from another species
measuredQuantity: IC50 (nM)

Example compounds with recorded IC50:
C=CC[C@H](NC(=O)[C@H](Cc1ccccc1)NC(=O)OC(C)(C)C)C(=O)N[C@@H](CC1CCCCC1)[C@@H](O)[C@@H](O)CC(C)C = 0.42
C=CC[C@H](NC(=O)[C@@H]1Cc2ccccc2CN1)C(=O)N[C@@H](CC1CCCCC1)[C@@H](O)[C@@H](O)CC(C)C = 11.5

a: CC(C)C[C@H](O)[C@H](O)[C@H](CC1CCCCC1)NC(=O)CNC(=O)[C@H](Cc1ccccc1)NS(=O)(=O)N1CCOCC1
b: C=CC[C@H](NC(=O)[C@H]1Cc2ccccc2CN1)C(=O)N[C@@H](CC1CCCCC1)[C@@H](O)[C@@H](O)CC(C)C
c: CC(C)C[C@H](O)[C@H](O)[C@H](CC1CCCCC1)NC(=O)CNC(=O)[C@@H]1Cc2ccccc2CN1S(=O)(=O)N1CCOCC1
// ascending sort on recorded IC50 I'd appreciate it if you listed the labels in the requested order.
a, c, b

###

- targetOrTestSystem: Renin (Homo sapiens, UniProt P00797)
- Sequence (P00797 whole entry): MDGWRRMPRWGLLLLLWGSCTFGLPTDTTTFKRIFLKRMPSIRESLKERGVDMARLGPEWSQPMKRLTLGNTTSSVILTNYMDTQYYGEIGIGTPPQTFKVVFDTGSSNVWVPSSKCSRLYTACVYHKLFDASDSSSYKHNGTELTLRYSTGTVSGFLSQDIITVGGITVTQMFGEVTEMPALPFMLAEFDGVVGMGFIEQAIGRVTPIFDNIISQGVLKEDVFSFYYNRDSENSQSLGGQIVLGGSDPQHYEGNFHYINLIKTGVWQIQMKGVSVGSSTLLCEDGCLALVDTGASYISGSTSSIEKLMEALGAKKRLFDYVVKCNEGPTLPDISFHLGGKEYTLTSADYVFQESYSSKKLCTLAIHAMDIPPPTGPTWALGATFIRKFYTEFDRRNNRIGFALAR
- protocolDescription: In vitro inhibitory activity against monkey plasma renin
- conditionLabel: target entry is the homologue from another species
measuredQuantity: IC50 (nM)

I: C=CC[C@H](NC(=O)[C@@H]1Cc2ccccc2CN1S(=O)(=O)N1CCOCC1)C(=O)N[C@@H](CC1CCCCC1)[C@@H](O)[C@@H](O)CC(C)C
II: C=CC[C@H](NC(=O)[C@H]1Cc2ccccc2CN1C(=O)OC(C)(C)C)C(=O)N[C@@H](CC1CCCCC1)[C@@H](O)[C@@H](O)CC(C)C
III: C=CC[C@H](NC(=O)[C@@H]1Cc2ccccc2CN1C(=O)OC(C)(C)C)C(=O)N[C@@H](CC1CCCCC1)[C@@H](O)[C@@H](O)CC(C)C
Ranking by IC50 (descending) is requested for the entries above. Dear reader, please state the labels in the requested order.
II, III, I
